Cited source for all entries: patent US12291515B2

test system: Human pancreatic cancer cell CFPAC-1; assay: CCK-8 cell proliferation assay, CFPAC-1; format: cell-based; conditions: CFPAC-1 cells, CCK-8, 24 hrs with drug, OD 450 nm
So basically: is IC50 under 50 nM? Then criterion met. Not under? Then criterion not met.

**Q:** Bench note: check whether COc1cccc(OC)c1C(=O)N1CCC(CCCCNC(=O)Nc2ccncc2)C1 (centres unmarked) shows IC50 below 50 nM
**A:** criterion not met

**Q:** Criterion: IC50 strictly below 50 nM. Is it met by O=C(NCCCCCCC1CCN(C(=O)C2CCCO2)C1)Nc1ccncc1 (centres unmarked) ?
**A:** criterion not met

**Q:** For O=C(NCCCCCCC1CCN(C(=O)c2ccco2)C1)Nc1cccnc1 (centres unmarked) , is the recorded IC50 below the cut-off of 50 nM?
**A:** criterion met

**Q:** Here's an entry: O=C(NCCCCCC1CCN(C(=O)c2ccco2)C1)Nc1cccnc1 (centres unmarked) . Is its IC50 below 50 nM?
**A:** criterion met

**Q:** Item O=C(NCCCCCCC1CCN(C(=O)c2ccccc2)C1)Nc1ccnc(F)c1 (centres unmarked) : IC50 beneath 50 nM, strictly?
**A:** criterion met

**Q:** Dear colleague, could you confirm whether IC50 of O=C(NCCCCCCC1CCN(C(=O)c2ccccc2)C1)Nc1cccnc1 (centres unmarked) falls below 50 nM? Thanks.
**A:** criterion met

**Q:** Problem: For the compound O=C(NCCCCCCCC1CCN(C(=O)c2ccccc2)C1)Nc1ccnc(F)c1 (centres unmarked) , is IC50 under 50 nM?
**A:** criterion met
